Biological target: HpαCA (Helicobacter pylori, UniProt B5Z8I0)
Construct: gene HPG27_1129; recombinant, obtained in-house; PDB 4XFW is given for docking only
Sequence (B5Z8I0 22-247): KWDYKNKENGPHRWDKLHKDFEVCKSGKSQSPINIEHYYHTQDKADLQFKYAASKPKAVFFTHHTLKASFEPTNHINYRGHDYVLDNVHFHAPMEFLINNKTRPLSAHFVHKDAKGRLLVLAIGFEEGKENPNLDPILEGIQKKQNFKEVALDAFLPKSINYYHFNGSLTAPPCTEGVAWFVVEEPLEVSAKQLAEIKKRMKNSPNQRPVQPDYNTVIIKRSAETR
Test: stopped-flow CO2 hydration
Format: biochemical
Details: read-out: KI (nM) * / Bacterial Isoforms / Hp αCA
Could you mark each record true (1) if its Ki falls strictly under 70 nM, and false (0) if it equals or exceeds it?

Cc1cc(/N=N/c2ccc(S(N)(=O)=O)cc2)ccc1O: false (0)
NS(=O)(=O)c1ccc(/N=N/c2ccc(O)c(C(F)(F)F)c2)cc1: true (1)
Cc1cc(O)cc(C)c1/N=N/c1ccc(S(N)(=O)=O)cc1: false (0)
COc1ccc(O)c(/N=N/c2ccc(S(N)(=O)=O)cc2)c1: true (1)
NS(=O)(=O)c1ccc(/N=N/c2ccc(O)cc2C(F)(F)F)cc1: false (0)
Cc1ccc(O)c(/N=N/c2ccc(S(N)(=O)=O)cc2)c1: false (0)
COc1cc(/N=N/c2ccc(S(N)(=O)=O)cc2)ccc1O: false (0)
Cc1cc(O)ccc1/N=N/c1ccc(S(N)(=O)=O)cc1: false (0)
